biological target: Mab Select SuRe Ligand; assay: SPR (Biacore T200), SuRe ligand on CM5 chip, antibody 5 ug/mL
Experimental readout: SuRe binding (RU)

Binder: TR01H101-E2702GsKsc/L0011-k0 (antibody, human IgG4 S228P, kappa, N297A, V domains shown) VH: QVQLVESGGGLVQPGRSLRLSCAASGFTFSNAWMHWVRQAPGKGLEWVAQIKDKSQNYAVYYAESVKGRFTISRDDSKNSLYLQMNSLKTEDTAVYYCRYVHYAAGYGVDAWGQGTTVTVSS VL: DIVMTQSPLSLPVTPGEPASISCRSSQPLVHSNRNTYLHWYQQKPGQAPRLLIYKVSNRFSGVPDRFSGSGSGTDFTLKISRVEAEDVGVYYCGQGTQVPYTFGQGTKLEIKR
Result number: 0.5
--
Binder: TR01H094-E2702GsKsc/L0011-k0 (antibody, human IgG4 S228P, kappa, N297A, V domains shown) VH: QVQLVESGGGLVQPGRSLRLSCAASGFTFSNAWMHWVRQAPGKGLEWVAQIKDKSQNYATYYAESVSGRFTISRDDSKNSLYLQMNSLKTEDTAVYYCRYVHYAAGYGVDAWGQGTTVTVSS VL: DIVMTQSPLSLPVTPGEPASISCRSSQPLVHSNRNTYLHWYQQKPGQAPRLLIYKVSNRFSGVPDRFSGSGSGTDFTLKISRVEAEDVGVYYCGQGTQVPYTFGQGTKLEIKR
Result number: 2350
--
Binder: TR01H108-E2702GsKsc/L0011-k0 (antibody, human IgG4 S228P, kappa, N297A, V domains shown) VH: QVQLVESGGGLVQPGRSLRLSCAASGFTFSNAWMHWVRQAPGKGLEWVAQIKDKSQNYATYTAESVKGRFTISRDDSKNSLYLQMNSLKTEDTAVYYCRYVHYAAGYGVDAWGQGTTVTVSS VL: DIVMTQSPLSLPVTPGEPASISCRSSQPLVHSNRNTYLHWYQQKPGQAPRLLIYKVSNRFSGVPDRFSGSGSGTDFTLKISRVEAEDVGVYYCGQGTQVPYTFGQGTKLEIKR
Result number: 0.4
--
Binder: TR01H112-E2702GsKsc/L0011-k0 (antibody, human IgG4 S228P, kappa, N297A, V domains shown) VH: QVQLVESGGGVVQPGGSLRLSCAASGFTFSNAWMHWVRQAPGKGLEWVAQIKDKSQNYAQYYAESVKGRFTISRADSKNSIYLQMNSLKTEDTAVYYCRYVHYAAGYGVDIWGQGTTVTVSS VL: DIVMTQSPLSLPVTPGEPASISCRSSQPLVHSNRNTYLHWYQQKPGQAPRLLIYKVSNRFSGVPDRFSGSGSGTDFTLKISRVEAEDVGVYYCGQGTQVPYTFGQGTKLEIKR
Result number: 8.8
--
Binder: TR01H092-E2702GsKsc/L0011-k0 (antibody, human IgG4 S228P, kappa, N297A, V domains shown) VH: QVQLVESGGGLVQPGRSLRLSCAASGFTFSNAWMHWVRQAPGKGLEWVAQIKDKSQNYATYYAESVAGRFTISRDDSKNSLYLQMNSLKTEDTAVYYCRYVHYAAGYGVDAWGQGTTVTVSS VL: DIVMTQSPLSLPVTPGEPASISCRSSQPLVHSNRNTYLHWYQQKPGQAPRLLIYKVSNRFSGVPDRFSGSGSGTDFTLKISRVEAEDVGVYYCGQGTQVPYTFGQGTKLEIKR
Result number: 1160
--
Binder: TR01H093-E2702GsKsc/L0011-k0 (antibody, human IgG4 S228P, kappa, N297A, V domains shown) VH: QVQLVESGGGLVQPGRSLRLSCAASGFTFSNAWMHWVRQAPGKGLEWVAQIKDKSQNYATYYAESVQGRFTISRDDSKNSLYLQMNSLKTEDTAVYYCRYVHYAAGYGVDAWGQGTTVTVSS VL: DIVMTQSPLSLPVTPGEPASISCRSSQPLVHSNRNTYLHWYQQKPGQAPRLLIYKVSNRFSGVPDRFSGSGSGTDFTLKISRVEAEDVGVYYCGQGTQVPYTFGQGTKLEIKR
Result number: 2460
--
Binder: TR01H106-E2702GsKsc/L0011-k0 (antibody, human IgG4 S228P, kappa, N297A, V domains shown) VH: QVQLVESGGGLVQPGRSLRLSCAASGFTFSNAWMHWVRQAPGKGLEWVAQIKDKSQNYATYPAESVKGRFTISRDDSKNSLYLQMNSLKTEDTAVYYCRYVHYAAGYGVDAWGQGTTVTVSS VL: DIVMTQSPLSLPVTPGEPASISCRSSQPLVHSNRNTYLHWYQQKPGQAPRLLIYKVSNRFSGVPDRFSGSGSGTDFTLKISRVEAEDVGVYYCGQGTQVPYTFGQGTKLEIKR
Result number: 0
--
Binder: TR01H109-E2702GsKsc/L0011-k0 (antibody, human IgG4 S228P, kappa, N297A, V domains shown) VH: QVQLVESGGGLVQPGRSLRLSCAASGFTFSNAWMHWVRQAPGKGLEWVAQIKDKSQNYATYVAESVKGRFTISRDDSKNSLYLQMNSLKTEDTAVYYCRYVHYAAGYGVDAWGQGTTVTVSS VL: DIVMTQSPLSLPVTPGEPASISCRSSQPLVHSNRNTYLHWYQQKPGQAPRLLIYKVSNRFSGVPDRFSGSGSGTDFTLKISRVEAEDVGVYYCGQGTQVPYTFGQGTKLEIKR
Result number: 2.2
--
Binder: TR01H107-E2702GsKsc/L0011-k0 (antibody, human IgG4 S228P, kappa, N297A, V domains shown) VH: QVQLVESGGGLVQPGRSLRLSCAASGFTFSNAWMHWVRQAPGKGLEWVAQIKDKSQNYATYQAESVKGRFTISRDDSKNSLYLQMNSLKTEDTAVYYCRYVHYAAGYGVDAWGQGTTVTVSS VL: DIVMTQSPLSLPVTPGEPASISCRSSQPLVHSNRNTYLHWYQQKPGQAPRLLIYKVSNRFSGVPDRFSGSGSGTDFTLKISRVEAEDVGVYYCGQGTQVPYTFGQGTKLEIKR
Result number: 1.4
--
Binder: TR01H099-E2702GsKsc/L0011-k0 (antibody, human IgG4 S228P, kappa, N297A, V domains shown) VH: QVQLVESGGGLVQPGRSLRLSCAASGFTFSNAWMHWVRQAPGKGLEWVAQIKDKSQNYAQYYAESVKGRFTISRDDSKNSLYLQMNSLKTEDTAVYYCRYVHYAAGYGVDAWGQGTTVTVSS VL: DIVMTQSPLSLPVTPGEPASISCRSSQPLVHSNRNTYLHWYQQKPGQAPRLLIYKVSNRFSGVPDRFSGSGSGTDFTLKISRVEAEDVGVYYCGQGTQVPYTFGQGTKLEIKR
Result number: 0.6
--
Binder: TR01H103-E2702GsKsc/L0011-k0 (antibody, human IgG4 S228P, kappa, N297A, V domains shown) VH: QVQLVESGGGLVQPGRSLRLSCAASGFTFSNAWMHWVRQAPGKGLEWVAQIKDKSQNYATYGAESVKGRFTISRDDSKNSLYLQMNSLKTEDTAVYYCRYVHYAAGYGVDAWGQGTTVTVSS VL: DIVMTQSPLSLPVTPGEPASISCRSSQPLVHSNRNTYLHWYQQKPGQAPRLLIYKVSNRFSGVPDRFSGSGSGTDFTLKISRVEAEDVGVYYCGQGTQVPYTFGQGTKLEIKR
Result number: 1.4
